Ref: patent US6288091A

biological target: HSV-1 helicase-primase (Human herpesvirus 1, UniProt P10189+P10236); construct: made in house; host or cells: Sf21 insect cells triply infected with recombinant baculoviruses (UL5, UL8, UL52); experiment: HSV-1 DNA-dependent ATPase assay (inhibition of HSV-1 helicase-primase); type: biochemical; conditions: Group 1 Table 2 entries (Q = CH2)
Sequence (P10192 whole entry): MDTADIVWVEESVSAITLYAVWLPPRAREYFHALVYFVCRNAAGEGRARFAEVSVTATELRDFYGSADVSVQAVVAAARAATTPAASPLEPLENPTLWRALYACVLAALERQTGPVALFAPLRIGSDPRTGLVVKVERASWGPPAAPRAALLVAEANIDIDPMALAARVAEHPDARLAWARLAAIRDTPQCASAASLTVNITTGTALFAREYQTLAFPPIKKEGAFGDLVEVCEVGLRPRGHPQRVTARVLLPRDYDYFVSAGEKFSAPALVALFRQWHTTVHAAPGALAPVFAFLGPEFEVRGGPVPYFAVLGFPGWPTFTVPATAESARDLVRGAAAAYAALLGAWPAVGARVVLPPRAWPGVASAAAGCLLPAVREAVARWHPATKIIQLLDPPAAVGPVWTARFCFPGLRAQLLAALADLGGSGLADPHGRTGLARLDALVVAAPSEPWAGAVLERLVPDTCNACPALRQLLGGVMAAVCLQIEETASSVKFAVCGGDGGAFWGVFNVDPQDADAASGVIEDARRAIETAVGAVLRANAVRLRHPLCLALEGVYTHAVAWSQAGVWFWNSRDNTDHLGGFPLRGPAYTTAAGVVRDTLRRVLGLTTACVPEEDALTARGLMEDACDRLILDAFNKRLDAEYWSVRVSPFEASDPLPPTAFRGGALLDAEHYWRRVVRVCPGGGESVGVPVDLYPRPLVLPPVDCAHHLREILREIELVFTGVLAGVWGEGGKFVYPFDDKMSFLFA
Sequence (P10236 whole entry): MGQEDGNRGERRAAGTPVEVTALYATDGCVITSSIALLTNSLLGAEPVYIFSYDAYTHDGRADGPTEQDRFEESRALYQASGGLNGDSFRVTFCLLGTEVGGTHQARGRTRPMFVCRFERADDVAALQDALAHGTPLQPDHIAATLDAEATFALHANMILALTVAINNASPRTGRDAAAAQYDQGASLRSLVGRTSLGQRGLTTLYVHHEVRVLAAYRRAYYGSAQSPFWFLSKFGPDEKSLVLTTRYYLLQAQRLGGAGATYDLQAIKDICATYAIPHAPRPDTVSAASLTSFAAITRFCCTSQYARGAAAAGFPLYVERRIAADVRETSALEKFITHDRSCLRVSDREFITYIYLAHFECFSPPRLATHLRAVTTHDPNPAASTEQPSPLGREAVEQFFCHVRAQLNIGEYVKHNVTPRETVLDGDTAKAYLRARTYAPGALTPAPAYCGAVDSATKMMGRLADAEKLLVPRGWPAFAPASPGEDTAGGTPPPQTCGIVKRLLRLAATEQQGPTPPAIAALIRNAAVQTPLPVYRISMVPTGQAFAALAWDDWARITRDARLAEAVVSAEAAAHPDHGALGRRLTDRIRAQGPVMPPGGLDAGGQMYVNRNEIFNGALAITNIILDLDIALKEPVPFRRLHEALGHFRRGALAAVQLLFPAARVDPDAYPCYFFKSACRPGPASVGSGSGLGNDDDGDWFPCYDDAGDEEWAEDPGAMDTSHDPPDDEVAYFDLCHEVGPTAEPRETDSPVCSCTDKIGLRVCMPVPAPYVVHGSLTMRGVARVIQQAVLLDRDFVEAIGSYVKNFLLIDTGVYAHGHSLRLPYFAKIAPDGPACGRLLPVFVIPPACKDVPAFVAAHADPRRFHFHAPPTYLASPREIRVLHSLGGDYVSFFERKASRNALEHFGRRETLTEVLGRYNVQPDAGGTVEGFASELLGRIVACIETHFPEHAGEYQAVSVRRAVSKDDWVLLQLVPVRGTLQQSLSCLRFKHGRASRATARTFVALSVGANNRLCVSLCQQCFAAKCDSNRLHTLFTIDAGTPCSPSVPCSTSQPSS
Sequence (P10189 whole entry): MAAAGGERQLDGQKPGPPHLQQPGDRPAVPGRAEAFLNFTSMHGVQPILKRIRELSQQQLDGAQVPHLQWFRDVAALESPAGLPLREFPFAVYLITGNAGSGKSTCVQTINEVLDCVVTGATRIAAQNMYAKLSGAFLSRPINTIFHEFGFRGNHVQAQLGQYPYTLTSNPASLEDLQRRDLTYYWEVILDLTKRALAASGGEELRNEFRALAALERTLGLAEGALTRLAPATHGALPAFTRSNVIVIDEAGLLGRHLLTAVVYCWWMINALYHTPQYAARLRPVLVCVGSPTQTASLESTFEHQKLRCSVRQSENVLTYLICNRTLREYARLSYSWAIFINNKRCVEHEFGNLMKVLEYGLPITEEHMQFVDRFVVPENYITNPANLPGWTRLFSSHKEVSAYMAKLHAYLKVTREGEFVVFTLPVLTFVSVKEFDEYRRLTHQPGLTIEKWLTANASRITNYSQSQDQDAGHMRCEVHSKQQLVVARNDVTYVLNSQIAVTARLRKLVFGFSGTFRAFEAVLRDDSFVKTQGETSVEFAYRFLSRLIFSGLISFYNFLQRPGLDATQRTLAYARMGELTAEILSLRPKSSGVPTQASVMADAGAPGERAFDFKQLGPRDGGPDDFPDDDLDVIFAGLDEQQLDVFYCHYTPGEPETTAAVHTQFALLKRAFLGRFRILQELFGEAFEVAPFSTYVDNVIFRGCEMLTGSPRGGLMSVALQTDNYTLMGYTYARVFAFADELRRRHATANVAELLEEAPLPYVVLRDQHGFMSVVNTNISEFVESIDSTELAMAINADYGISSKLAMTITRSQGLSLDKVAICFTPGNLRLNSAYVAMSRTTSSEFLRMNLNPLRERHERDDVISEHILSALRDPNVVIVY
Listed here are molecules together with their documented IC50.
A number alone suffices; assume µM.

The following molecules have reported results that may help.
Nc1nc(-c2ccc(NC(=O)CCNCc3cccc(F)c3)cc2)cs1 ... 5.2
Nc1nc(-c2ccc(NC(=O)CCN(Cc3ccccc3)Cc3ccccc3)cc2)cs1 ... 1.2
C[C@@H](c1ccccc1)N(CCC(=O)Nc1ccc(-c2csc(N)n2)cc1)Cc1ccccc1 ... 0.46
CC(C)(C)OC(=O)N(CCC(=O)Nc1ccc(-c2csc(N)n2)cc1)Cc1ccccc1 ... 0.28
Nc1nc(-c2ccc(NC(=O)CCNCC3CCCCC3)cc2)cs1 ... 29
Nc1nc(-c2ccc(NC(=O)CCN(CC3CCCCC3)C(=O)c3cccnc3)cc2)cs1 ... 1.2
Nc1nc(-c2ccc(NC(=O)CCN(C(=O)c3cccnc3)C3Cc4ccccc4C3)cc2)cs1 ... 10
C[C@H](NCCC(=O)Nc1ccc(-c2csc(N)n2)cc1)c1ccccc1 ... 7.2
Nc1nc(-c2ccc(NC(=O)CCN(Cc3ccccc3)C(=O)C3CCCCC3)cc2)cs1 ... 1.7
CC(C)(C)OC(=O)N(CCC(=O)Nc1ccc(-c2csc(N)n2)cc1)C1Cc2ccccc2C1 ... 1.7

Per the record, Nc1nc(-c2ccc(NC(=O)CCN(Cc3ccccc3)CC3CCCCC3)cc2)cs1 has IC50 of 0.76

Per the record, Nc1nc(-c2ccc(NC(=O)CCNC3Cc4ccccc4C3)cc2)cs1 has IC50 of 21

Per the record, C[C@@H](c1ccccc1)N(CCC(=O)Nc1ccc(-c2csc(N)n2)cc1)C(=O)OC(C)(C)C has IC50 of 1

Per the record, Nc1nc(-c2ccc(NC(=O)CCN(Cc3ccccc3)C(=O)c3ccccc3)cc2)cs1 has IC50 of 2.1

Per the record, CC(C)(C)OC(=O)N(CCC(=O)Nc1ccc(-c2csc(N)n2)cc1)CC1CCCCC1 has IC50 of 0.028

Per the record, Nc1nc(-c2ccc(NC(=O)CCN(Cc3ccccc3)C(=O)OCc3ccccc3)cc2)cs1 has IC50 of 1.8

Per the record, CCCC(CCC)NCCC(=O)Nc1ccc(-c2csc(N)n2)cc1 has IC50 of 45

Per the record, C[C@@H](NCCC(=O)Nc1ccc(-c2csc(N)n2)cc1)c1ccccc1 has IC50 of 13.6

Per the record, Nc1nc(-c2ccc(NC(=O)CCNCc3ccccc3)cc2)cs1 has IC50 of 21
